Just for reference, patent US20260078114A1 is where these values come from.

biological target: CDK6/CyclinD3 (Homo sapiens); assay: Kinase activity test (mobility shift assay, EZ Reader), CDK6; conditions: CDK6/CyclinD3 5.00 nM, ATP 350 μM, FL-Peptide34
Sequence (Q00534 whole entry, species assumed): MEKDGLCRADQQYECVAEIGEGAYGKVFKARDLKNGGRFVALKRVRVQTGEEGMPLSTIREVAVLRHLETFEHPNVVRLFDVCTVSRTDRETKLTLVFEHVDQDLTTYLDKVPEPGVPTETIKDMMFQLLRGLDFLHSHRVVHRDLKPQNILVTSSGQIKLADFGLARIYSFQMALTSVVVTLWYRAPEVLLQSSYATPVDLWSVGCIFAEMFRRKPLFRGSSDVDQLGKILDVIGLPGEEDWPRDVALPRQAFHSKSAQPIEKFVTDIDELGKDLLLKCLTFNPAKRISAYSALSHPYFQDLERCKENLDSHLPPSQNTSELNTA
Sequence (P30281 whole entry partner, species assumed): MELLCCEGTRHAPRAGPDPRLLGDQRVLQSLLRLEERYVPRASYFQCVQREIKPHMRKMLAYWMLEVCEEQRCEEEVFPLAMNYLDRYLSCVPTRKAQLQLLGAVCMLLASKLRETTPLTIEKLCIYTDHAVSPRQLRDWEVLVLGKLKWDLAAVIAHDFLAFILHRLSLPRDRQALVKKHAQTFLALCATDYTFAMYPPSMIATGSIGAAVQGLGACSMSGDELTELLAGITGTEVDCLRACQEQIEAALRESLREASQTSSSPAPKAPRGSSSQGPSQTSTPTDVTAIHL
pIC50: −log10 of the molar value.
propertyLabel: pIC50

{"molecule": "CC(C)n1c(N(C)C)nc2c(F)cc(-c3nc(N[C@H]4CC[C@@H](NS(C)(=O)=O)CC4)ncc3Cl)cc21", "propertyLabel": "pIC50", "endpointValue": "< 6.30"}
{"molecule": "CN1CCCn2c1nc1c(F)cc(-c3nc(N[C@@H]4CCOC[C@H]4O)ncc3C(F)(F)F)cc12", "propertyLabel": "pIC50", "endpointValue": "< 6.30"}

QUERY: Which pIC50 is reported for this molecule? CC(C)N1CCOc2c(F)cc(-c3nc(NC4CCCC(C(=O)N(C)C)C4)ncc3Cl)cc21 (centres unmarked)
RESULT: < 6.30

QUERY: What do you have for `COC(=O)N1CCC(Nc2ncc(Cl)c(-c3cc(F)c4nc5n(c4c3)CCCN5C)n2)CC1` ?
RESULT: < 6.30
